species: Homo sapiens; assay: Selectivity ratio of EC50 for human MC4R to EC50 for human MC1R
*1 amine or outer side, *2 acyl side, *3 side chain or, on linkers, in order; H or OH if unused. Where a SMILES comes first, the peptide text is derived from it. Bridges are numbered along the chain shown (N, C = ends). [ ]: non-standard residue; d: D form. pXylylene = c1cc(C[*:2])ccc1C[*:1]; NMeR = CN[C@@H](CCCNC(=N)N)C(=O)O; CH2COCH2 = O=C(C[*:1])C[*:2]; Nle = CCCC[C@H](N)C(=O)O
Measured Ratio EC50, listed per entry for reference.
The answer should be a number; do not append a unit.

GET /value?item= CC[C@H](C)[C@@H]1NC(=O)[C@@H]2CCCN2C(=O)[C@H](Cc2c[nH]c3ccccc23)NC(=O)[C@H](CCCNC(=N)N)N(C)C(=O)[C@H](Cc2ccccc2)NC(=O)[C@H](Cc2cnc[nH]2)NC(=O)[C@H]([C@@H](C)O)NC(=O)[C@@H](NC(C)=O)CSCc2ccc(cc2)CSC[C@@H](C(N)=O)NC1=O (Ac-CTHF[NMeR]WPIC-NH2; linker 1-9 via pXylylene) &field=Ratio EC50 returns 60

Let us move to another entry and its Ratio EC50.
GET /value?item= CCCC[C@@H]1NC(=O)[C@@H]2CSCC(=O)CSC[C@H](NC(=O)[C@H](CCCNC(=N)N)NC(=O)[C@H](CC(=O)O)NC(=O)[C@H](Cc3c[nH]c4ccccc34)NC(=O)[C@H](CCCNC(=N)N)NC(=O)[C@H](Cc3ccccc3)NC(=O)[C@H](Cc3cnc[nH]3)NC(=O)CNC1=O)C(=O)N[C@@H](Cc1cnc[nH]1)C(=O)N[C@@H](Cc1ccccc1)C(=O)N[C@@H](CCCNC(=N)N)C(=O)N[C@@H](Cc1c[nH]c3ccccc13)C(=O)N[C@@H](CCCNC(=N)N)C(=O)N2 (cyclo(CHFRWRC[Nle]GHFRWDR); linker 1-7 via CH2COCH2) &field=Ratio EC50 returns 13

* * *

species: Homo sapiens; test: Selectivity ratio of Ki for human MC3R to Ki for human MC1R
*1 amine or outer side, *2 acyl side, *3 side chain or, on linkers, in order; H or OH if unused. Where a SMILES comes first, the peptide text is derived from it. Bridges are numbered along the chain shown (N, C = ends). [ ]: non-standard residue; d: D form. oXylylene = c1ccc(C[*:2])c(C[*:1])c1; NMeR = CN[C@@H](CCCNC(=N)N)C(=O)O
MEASUREMENT_TYPE: Ratio Ki
The answer should be a number; do not append a unit.

GET /value?item= CC[C@H](C)[C@@H]1NC(=O)[C@@H]2CCCN2C(=O)[C@H](Cc2c[nH]c3ccccc23)NC(=O)[C@H](CCCNC(=N)N)N(C)C(=O)[C@H](Cc2ccccc2)NC(=O)[C@H](Cc2cnc[nH]2)NC(=O)[C@H]([C@@H](C)O)NC(=O)[C@@H](NC(C)=O)CSCc2ccccc2CSC[C@@H](C(N)=O)NC1=O (Ac-CTHF[NMeR]WPIC-NH2; linker 1-9 via oXylylene) &field=Ratio Ki returns 191

* * *

molecular target: UniProt:P33032; test: Agonist activity at human MC5R expressed in HEK2936E cells assessed as cAMP production in presence of IBMX by time resolved fluorescence assay; assay type: functional, cell-based
Sequence (P33032 whole entry): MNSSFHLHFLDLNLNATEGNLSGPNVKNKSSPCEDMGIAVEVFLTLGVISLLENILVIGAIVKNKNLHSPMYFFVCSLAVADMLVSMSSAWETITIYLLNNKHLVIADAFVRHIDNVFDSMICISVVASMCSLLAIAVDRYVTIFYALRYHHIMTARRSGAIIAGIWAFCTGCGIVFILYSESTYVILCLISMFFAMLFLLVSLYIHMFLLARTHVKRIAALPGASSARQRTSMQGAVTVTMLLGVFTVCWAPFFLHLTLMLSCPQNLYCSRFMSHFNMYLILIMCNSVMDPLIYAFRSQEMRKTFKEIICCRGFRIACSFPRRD
MEASUREMENT_TYPE: pEC50
The answer should be a number; do not append a unit.

GET /value?item= `CC[C@H](C)[C@@H]1NC(=O)[C@@H]2CCCN2C(=O)[C@H](Cc2c[nH]c3ccccc23)NC(=O)[C@H](CCCNC(=N)N)N(C)C(=O)[C@H](Cc2ccccc2)NC(=O)[C@H](Cc2cnc[nH]2)NC(=O)[C@H]([C@@H](C)O)NC(=O)[C@H](NC(C)=O)CCSSCC[C@H](C(N)=O)NC1=O` &field=pEC50 returns 5.38
